In this section, each of the compounds is paired with its reported melting point.
- Conditions: a range is the spread between reports

Clc1ccc(Cl)c(Br)c1: 34 to 35 °C

Prompt: What does the record list as melting point for O=C(O)CO ?
Completion: 77 to 80 °C

Prompt: Lookup Nc1cc(Cl)c(Cl)cc1Cl
Completion: 94 to 96.5 °C

Prompt: Lookup Cc1cccc(C)c1C
Completion: -25.4 to -25 °C

Prompt: Lookup CC1=c2ccccc2=NC1c1ccccc1 (stereo unspecified)
Completion: 91 to 91.5 °C

Prompt: Lookup Nc1cc([N+](=O)[O-])ccc1Cl
Completion: 118 to 121 °C

Prompt: Lookup ICI
Completion: 5 to 6.1 °C

Prompt: Lookup CCn1cc(C(=O)O)c(=O)c2cc(F)c(N3CCNC(C)C3)c(F)c21 (stereo unspecified)
Completion: 240 °C

Prompt: Lookup CCCOC(=O)c1ccc(O)cc1
Completion: 96 to 97 °C

Prompt: Lookup CCc1ccccn1
Completion: -63.1 to -63 °C

Prompt: Lookup Brc1ccc(Oc2ccc(Br)cc2)cc1
Completion: 58 to 60.5 °C

Prompt: Lookup CS(C)=O
Completion: 18 to 18.5 °C

Prompt: Lookup CC1(C(=O)O)CCCCC1
Completion: 37.5 to 38 °C

Prompt: Lookup Cc1ccc(S)c(S)c1
Completion: 29 to 31 °C

Prompt: Lookup CC(=O)CC(=O)c1ccccc1
Completion: 56 to 59 °C

Prompt: Lookup CCCC(C)(C)C
Completion: -124 °C

Prompt: Lookup Nc1ccccc1
Completion: -6.3 to -6 °C
